Below, each entry is listed alongside its reported Mean fluorescence.
test system: XBP1-GFP reporter in Hek293-FT cells; test: FACS on Hek293-FT cells transfected with XBP1-GFP reporter; assay type: cell-based; conditions: Tm 0.3 ug/ml + compound 2 uM; treated for 24 hrs
Give the figure by itself; no unit, no explanation.

Sample answers from the record:
chemicalString: N#CCc1ccc(Nc2nccc(Nc3cc(C4CCCCC4)n[nH]3)n2)cc1
Mean fluorescence: 4318
--
chemicalString: c1cc(Nc2cc(C3CC3)[nH]n2)nc(Nc2ccc3[nH]cnc3c2)n1
Mean fluorescence: 4016
--
chemicalString: N#CCc1ccc(Nc2nccc(Nc3cc(C4CC4)[nH]n3)n2)cc1
Mean fluorescence: 2387

[ask] What does the record list as Mean fluorescence for N#CCc1ccc(Nc2nccc(Nc3cc(C4CCC4)n[nH]3)n2)cc1 ?
[reply] 2648

[ask] What does the record list as Mean fluorescence for Cc1cc(Nc2cc(C3CC3)n[nH]2)nc(Nc2ccc(CC#N)cc2)n1 ?
[reply] 2805

[ask] What does the record list as Mean fluorescence for OCCc1ccc(Nc2nccc(Nc3cc(C4CCCCC4)n[nH]3)n2)cc1 ?
[reply] 3613

[ask] What does the record list as Mean fluorescence for N#CCc1ccc(Nc2nccc(Nc3cc(C4CCCC4)n[nH]3)n2)cc1 ?
[reply] 2289

----------
The following are reported IC50 results, target or system WT Abl (Homo sapiens, UniProt P00519).
Numbers only; they are read as µM.

chemicalString: O=C(Nc1ccc(Nc2nccc(Nc3cc(C4CC4)n[nH]3)n2)cc1)Nc1cccc(C(F)(F)F)c1
targetOfAssay: WT Abl (Homo sapiens, UniProt P00519)
Sequence (P00519 whole entry): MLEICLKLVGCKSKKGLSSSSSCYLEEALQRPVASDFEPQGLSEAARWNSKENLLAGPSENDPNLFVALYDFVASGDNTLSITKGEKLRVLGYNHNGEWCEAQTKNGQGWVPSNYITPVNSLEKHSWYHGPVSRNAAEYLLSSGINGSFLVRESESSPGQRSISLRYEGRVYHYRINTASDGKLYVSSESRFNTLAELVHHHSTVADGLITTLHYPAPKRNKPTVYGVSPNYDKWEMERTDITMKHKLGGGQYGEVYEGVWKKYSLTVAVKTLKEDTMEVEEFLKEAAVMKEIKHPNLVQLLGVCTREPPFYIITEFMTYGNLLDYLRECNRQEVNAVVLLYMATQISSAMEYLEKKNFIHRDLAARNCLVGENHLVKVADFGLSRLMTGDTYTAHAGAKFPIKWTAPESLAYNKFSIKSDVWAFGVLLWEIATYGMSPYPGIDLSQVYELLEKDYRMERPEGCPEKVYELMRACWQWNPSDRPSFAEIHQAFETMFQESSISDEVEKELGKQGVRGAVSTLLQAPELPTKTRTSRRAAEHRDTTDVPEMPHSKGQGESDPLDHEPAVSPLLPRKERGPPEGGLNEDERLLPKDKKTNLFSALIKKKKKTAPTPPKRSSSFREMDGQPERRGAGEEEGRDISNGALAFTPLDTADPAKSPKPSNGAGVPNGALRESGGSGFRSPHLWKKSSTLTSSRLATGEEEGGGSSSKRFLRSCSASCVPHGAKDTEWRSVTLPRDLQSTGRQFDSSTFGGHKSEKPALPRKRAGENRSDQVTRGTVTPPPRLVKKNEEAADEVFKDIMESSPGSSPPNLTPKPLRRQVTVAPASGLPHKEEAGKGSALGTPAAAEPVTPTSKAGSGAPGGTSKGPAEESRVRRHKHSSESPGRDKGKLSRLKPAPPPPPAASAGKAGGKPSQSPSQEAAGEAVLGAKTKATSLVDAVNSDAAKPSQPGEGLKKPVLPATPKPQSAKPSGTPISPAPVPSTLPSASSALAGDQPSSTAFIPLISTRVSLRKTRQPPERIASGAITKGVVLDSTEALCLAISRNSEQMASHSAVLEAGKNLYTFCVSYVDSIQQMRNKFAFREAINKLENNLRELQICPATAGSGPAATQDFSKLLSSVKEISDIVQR
IC50 (µM): 2.43

Now examine the next entry.
[ask] Missing value: IC50, WT Abl (Homo sapiens, UniProt P00519), entry O=C(Nc1cccc(Nc2nccc(Nc3cc(C4CC4)n[nH]3)n2)c1)c1cccc(C(F)(F)F)c1 . Fill in?
[reply] 4.96

----------
molecular target: human Ire1 (Homo sapiens, UniProt O75460); test: In vitro cleavage of 32P-stem-loop RNA by human Ire1; format: biochemical; conditions: AD series of Ire1 modulators
Sequence (O75460 19-977): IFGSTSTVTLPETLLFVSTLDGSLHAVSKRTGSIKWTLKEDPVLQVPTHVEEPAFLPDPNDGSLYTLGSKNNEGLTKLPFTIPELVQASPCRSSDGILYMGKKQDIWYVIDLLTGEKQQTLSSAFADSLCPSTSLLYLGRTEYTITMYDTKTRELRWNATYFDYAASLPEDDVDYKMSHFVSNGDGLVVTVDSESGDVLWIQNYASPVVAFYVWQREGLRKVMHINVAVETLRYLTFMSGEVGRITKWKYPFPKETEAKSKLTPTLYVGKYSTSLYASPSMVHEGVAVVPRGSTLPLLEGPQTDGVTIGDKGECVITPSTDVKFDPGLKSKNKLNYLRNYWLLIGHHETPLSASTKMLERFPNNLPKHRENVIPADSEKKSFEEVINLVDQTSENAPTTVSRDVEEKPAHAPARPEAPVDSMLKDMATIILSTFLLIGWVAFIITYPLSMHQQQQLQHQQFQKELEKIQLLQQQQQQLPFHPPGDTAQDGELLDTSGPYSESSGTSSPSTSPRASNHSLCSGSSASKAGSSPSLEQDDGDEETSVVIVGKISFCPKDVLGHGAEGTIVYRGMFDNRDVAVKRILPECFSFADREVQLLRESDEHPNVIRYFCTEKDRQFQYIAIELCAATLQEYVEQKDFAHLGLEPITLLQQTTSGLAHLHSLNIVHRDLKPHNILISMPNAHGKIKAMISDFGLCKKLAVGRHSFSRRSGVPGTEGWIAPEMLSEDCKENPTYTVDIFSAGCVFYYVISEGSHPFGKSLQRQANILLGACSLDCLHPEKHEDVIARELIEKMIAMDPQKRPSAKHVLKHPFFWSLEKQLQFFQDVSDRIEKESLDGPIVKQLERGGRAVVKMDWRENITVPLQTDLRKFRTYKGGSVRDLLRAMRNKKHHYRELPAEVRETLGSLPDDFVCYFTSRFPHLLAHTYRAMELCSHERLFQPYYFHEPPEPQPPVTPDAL
measuredAttribute: In vitro cleavage of 32P-stem-loop RNA by human Ire1
Give the figure by itself; no unit, no explanation.

Sample answers from the record:
chemicalString: O=C(Nc1ccc(Nc2nccc(Nc3cc(C4CC4)n[nH]3)n2)cc1)Nc1cccc(C(F)(F)F)c1
valueObserved: 0.2317
--
chemicalString: O=C(Nc1cccc(Nc2nccc(Nc3cc(C4CC4)n[nH]3)n2)c1)Nc1cccc(C(F)(F)F)c1
valueObserved: 0.0239
--
chemicalString: O=C(Nc1ccc(Nc2nccc(Nc3cc(C4CC4)n[nH]3)n2)cc1)c1cccc(C(F)(F)F)c1
valueObserved: 0.0877

[ask] Missing value: In vitro cleavage of 32P-stem-loop RNA by human Ire1, human Ire1 (Homo sapiens, UniProt O75460), entry O=C(Nc1cccc(Nc2nccc(Nc3cc(C4CC4)n[nH]3)n2)c1)c1cccc(C(F)(F)F)c1 . Fill in?
[reply] 0.0139

----------
tested on: XBP1-GFP reporter in Hek293-FT cells; experiment: FACS on Hek293-FT cells transfected with XBP1-GFP reporter; format: cell-based; conditions: Tm 0.3 ug/ml + compound 2 uM; treated for 24 hrs
% fold induction to Control less than 20% is t; % fold induction to Control greater than or equal to 20% is f.

Please review the following examples before continuing.
molecule: Cc1cc(Nc2cc(C3CC3)n[nH]2)nc(Nc2ccc(CC#N)cc2)n1 [APY69]
cat: t
--
molecule: c1cc(Nc2cc(C3CC3)[nH]n2)nc(Nc2ccc3[nH]cnc3c2)n1 [APY29]
cat: f
--
molecule: OCCc1ccc(Nc2nccc(Nc3cc(C4CCCCC4)n[nH]3)n2)cc1 [APY33]
cat: f

[ask] Decide: % fold induction to Control of N#CCc1ccc(Nc2nccc(Nc3cc(C4CC4)[nH]n3)n2)cc1 [APY24] strictly below 20%?
[reply] t

[ask] Decide: % fold induction to Control of N#CCc1ccc(Nc2nccc(Nc3cc(C4CCC4)n[nH]3)n2)cc1 [APY77] strictly below 20%?
[reply] t

[ask] Decide: % fold induction to Control of N#CCc1ccc(Nc2nccc(Nc3cc(C4CCCCC4)n[nH]3)n2)cc1 [APY34] strictly below 20%?
[reply] f

[ask] Decide: % fold induction to Control of N#CCc1ccc(Nc2nccc(Nc3cc(C4CCCC4)n[nH]3)n2)cc1 [APY67] strictly below 20%?
[reply] t

----------
The following are reported IC50 results, target or system WT Src (Homo sapiens, UniProt P12931).
Numbers only; they are read as nM.

chemicalString: O=C(Nc1ccc(Nc2nccc(Nc3cc(C4CC4)n[nH]3)n2)cc1)Nc1cccc(C(F)(F)F)c1
IC50 (nM): 170

Now examine the next entry.
[ask] Missing value: IC50, WT Src (Homo sapiens, UniProt P12931), entry O=C(Nc1ccc(Nc2nccc(Nc3cc(C4CC4)n[nH]3)n2)cc1)c1cccc(C(F)(F)F)c1 . Fill in?
[reply] 357

----------
Molecular target: yIre1 (Saccharomyces cerevisiae, UniProt P32361)
Construct: GST (N); made in house; host or cells: E. coli BL21 CodonPlus (RIPL)
Sequence (P32361 with tags, fused parts or gaps limits assumed): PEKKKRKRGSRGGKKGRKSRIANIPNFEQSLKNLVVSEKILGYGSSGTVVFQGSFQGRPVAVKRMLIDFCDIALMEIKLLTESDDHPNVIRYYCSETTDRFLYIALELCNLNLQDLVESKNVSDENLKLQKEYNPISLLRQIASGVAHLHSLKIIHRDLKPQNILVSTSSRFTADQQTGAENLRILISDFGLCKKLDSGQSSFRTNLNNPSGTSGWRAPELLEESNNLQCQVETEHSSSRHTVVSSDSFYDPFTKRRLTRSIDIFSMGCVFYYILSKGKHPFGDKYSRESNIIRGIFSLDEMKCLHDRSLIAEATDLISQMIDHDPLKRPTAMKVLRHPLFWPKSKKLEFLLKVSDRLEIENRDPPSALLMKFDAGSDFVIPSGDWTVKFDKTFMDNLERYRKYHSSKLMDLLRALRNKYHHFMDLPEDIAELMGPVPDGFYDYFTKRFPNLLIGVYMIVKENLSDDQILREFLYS
Assay: RNA cleavage-based yIre1 activation assay
Type: biochemical, yeast
Set-up: unit not given here
Conditions: 3 μM yIre1, stem loop RNA, 15 μM effector
Everything with RNA cleavage (yIre1 activation) lower than 0.005 is label 0; everything else, including exactly 0.005, is label 1.

[ask] Reported RNA cleavage (yIre1 activation) at or above 0.005? N#CCc1ccc(Nc2nc(Nc3cc(C4CC4)n[nH]3)c3ccccc3n2)cc1
[reply] label 1

[ask] Reported RNA cleavage (yIre1 activation) at or above 0.005? c1cc(Nc2cc(C3CC3)[nH]n2)nc(Nc2ccc3[nH]cnc3c2)n1
[reply] label 1

----------
Below, each entry is listed alongside its reported RNA cleavage (yIre1 activation).
target: yIre1 (Saccharomyces cerevisiae, UniProt P32361); construct: GST (N); made in house; host or cells: E. coli BL21 CodonPlus (RIPL); assay: RNA cleavage-based yIre1 activation assay; type: biochemical, yeast; set-up: unit not given here; conditions: 3 μM yIre1, stem loop RNA, 15 μM effector
Give the figure by itself; no unit, no explanation.

chemicalString: N#CCc1ccc(Nc2nccc(Nc3cc(C4CC4)[nH]n3)n2)cc1
targetOfAssay: yIre1 (Saccharomyces cerevisiae, UniProt P32361)
valueObserved: 0.04667

chemicalString: N#CCc1ccc(Nc2nc(Nc3cc(C4CCCCC4)n[nH]3)c3ccccc3n2)cc1
targetOfAssay: yIre1 (Saccharomyces cerevisiae, UniProt P32361)
valueObserved: 0.000626

chemicalString: Cc1cc(Nc2cc(C3CCCCC3)n[nH]2)nc(Nc2ccc(CC#N)cc2)n1
targetOfAssay: yIre1 (Saccharomyces cerevisiae, UniProt P32361)
valueObserved: 0.001872

chemicalString: CC(=O)Nc1ccc(Nc2nccc(Nc3cc(C4CCCCC4)n[nH]3)n2)cc1
targetOfAssay: yIre1 (Saccharomyces cerevisiae, UniProt P32361)
valueObserved: 0.000897

chemicalString: Cc1cc(Nc2cc(C3CCCC3)n[nH]2)nc(Nc2ccc(CC#N)cc2)n1
targetOfAssay: yIre1 (Saccharomyces cerevisiae, UniProt P32361)
valueObserved: 0.001022

[ask] What does the record list as RNA cleavage (yIre1 activation) for N#CCc1ccc(Nc2nccc(Nc3cc(C4CCCC4)n[nH]3)n2)cc1 ?
[reply] 0.006034

[ask] What does the record list as RNA cleavage (yIre1 activation) for OCCc1ccc(Nc2nccc(Nc3cc(C4CCCCC4)n[nH]3)n2)cc1 ?
[reply] 0.00232

[ask] What does the record list as RNA cleavage (yIre1 activation) for N#CCc1ccc(Nc2nc(Nc3cc(C4CCCC4)n[nH]3)c3ccccc3n2)cc1 ?
[reply] 0.002028
